# assay_remarks: Critical micelle concentration (cmc)
# Type: physicochemical
measured_metric: cmc (µM)
Dear colleague, please return just the value in µM, with no unit written.

Worked cases, cmc given:
CCCCCCCCCCCCCCCC[N+](C)(C)CC(=O)[O-]    14
CCCCCCCCCCCCCCCC[N+](C)(C)CCCCCC(=O)[O-]    10

Continue with the next compound.
Can you look up the measured cmc of CCCCCCCCCCCCCCCC[N+](C)(C)CCCS(=O)(=O)[O-] for me?
28

* * *

# Test system: NIH 3T3 cells
# assay_remarks: Cell growth inhibition assay, NIH 3T3
# Assay type: cell-based, mouse
# test_conditions: NIH3T3; NIH 3T3 mouse fibroblasts; 3-4 days; read-out: IC50 (uM conc. inhibiting growth of the cells by 50%)
measured_metric: IC50 (µM)
Dear colleague, please return just the value in µM, with no unit written.

CCCCCCCCCCCCCCCC[N+](C)(C)CCCCCC(=O)[O-]    24

Continue with the next molecule.
Can you look up the measured IC50 of CCCCCCCCCCCCCCCC[N+](C)(C)CCCS(=O)(=O)[O-] for me?
40

* * *

Listing of recorded IC50 by entry.
# Test system: K-562 cells
# assay_remarks: Cell growth inhibition assay, K-562
# Format: cell-based
# test_conditions: Homo sapiens, K562; K-562 leukemia cells; 3-4 days; read-out: IC50 (uM conc. inhibiting growth of the cells by 50%)

Worked cases, IC50 given:
CCCCCCCCCCCC[N+](C)(C)CCCCCC(=O)[O-]    > 100 µM
CCCCCCCC[N+](C)(C)CCCS(=O)(=O)[O-]    > 100 µM

Continue with the next compound.
Can you look up the measured IC50 of CCCCCCCCCCCC[N+](C)(C)CCCS(=O)(=O)[O-] for me?
> 100 µM

* * *

# assay_remarks: Critical micelle concentration (cmc)
# Assay type: physicochemical
measured_metric: cmc

Worked cases, cmc given:
CCCCCCCCCCCC[N+](C)(C)CCCCCC(=O)[O-]    5,100 uM
CCCCCCCCCCCC[N+](C)(C)CC(=O)[O-]    2,400 uM
CCCCCCCC[N+](C)(C)CCCS(=O)(=O)[O-]    200,000 uM

Continue with the next compound.
Can you look up the measured cmc of CCCCCCCCCCCC[N+](C)(C)CCCS(=O)(=O)[O-] for me?
2,200 uM

* * *

# Tested on: NIH 3T3 cells
# assay_remarks: Cell growth inhibition assay, NIH 3T3
# Type: cell-based, mouse
# test_conditions: NIH3T3; NIH 3T3 mouse fibroblasts; 3-4 days; read-out: IC50 (uM conc. inhibiting growth of the cells by 50%)
measured_metric: IC50

Can you look up the measured IC50 of CCCCCCCCCCCC[N+](C)(C)CCCS(=O)(=O)[O-] [12-3S] for me?
> 100 µM

Can you look up the measured IC50 of CCCCCCCCCCCC[N+](C)(C)CCCCCC(=O)[O-] [12-5B] for me?
> 100 µM

Can you look up the measured IC50 of CCCCCCCC[N+](C)(C)CCCS(=O)(=O)[O-] [8-3S] for me?
> 100 µM

meta.source: patent US5545667A
